pKd reference
Target: T1, mfGITR.mmh (Macaca fasicularis)
T1 construct: soluble monomeric construct; also called Macaca fasicularis (mf) GITR.mmh; cynomolgus GITR protein
T1 chain: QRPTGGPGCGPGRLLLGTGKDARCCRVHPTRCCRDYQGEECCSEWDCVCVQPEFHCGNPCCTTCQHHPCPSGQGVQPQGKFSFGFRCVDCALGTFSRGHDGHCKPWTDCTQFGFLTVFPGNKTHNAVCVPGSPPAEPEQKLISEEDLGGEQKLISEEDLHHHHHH
Assay: SPR 37C, mAb capture
Protocol: (Table 3). […] GITR proteins were injected over the sensor surface at a flow rate of 30 μL/minute. […] Antibody-reagent association was monitored for 4 minutes while dissociation in HBS-ET running buffer (10 mM HEPES, 150 mM NaCl, 3 mM EDTA, 0.05% (v/v) Surfactant P20, pH 7.4) was monitored for 10 minutes. Kinetic association (kₐ) and dissociation (kd) rate constants were determined by fitting the real-time sensorgrams to a 1:1 binding model using Scrubber 2.0c curve fitting software. […]
Interpret pKd as the negative base-10 log of the concentration measured in mol/L.

Some binders with recorded pKd:
INSERT INTO measurements (binder, reported_measurement) VALUES
  ('H1H14493P (antibody, human IgG1, V domains shown, human IgG1 (H1H)) VH: QVQLVESGGGVVQPGRSLRLSCAASGFNFRSYGMHWVRQAPGKGLEWVAVIWYDGSNKYYADSVKGRFTISRDSSRDTLFLQMNSLRAGDTAVYYCARGGMLGRDYYYGMDVWGQGTTVTVSS VL: DIQMTQSPSSLSASVGDRVTITCRASQGIRNDLGWYQQKPGKAPKRLIYAASSLQSGVPSRFSGSGSGTEFTLTISSLQPEDFATYYCLQHNSYPNTFGQGTKLEIK', 5.85),
  ('H4H14476P (antibody, human IgG4, V domains shown, human IgG4 (H4H)) VH: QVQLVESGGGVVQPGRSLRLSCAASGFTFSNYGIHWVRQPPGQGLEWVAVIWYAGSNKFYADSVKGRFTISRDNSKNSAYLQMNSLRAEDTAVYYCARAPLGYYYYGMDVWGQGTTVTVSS VL: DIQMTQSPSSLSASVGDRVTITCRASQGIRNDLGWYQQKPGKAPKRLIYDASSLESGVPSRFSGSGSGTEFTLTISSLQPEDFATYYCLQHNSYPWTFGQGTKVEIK', 7.25);

Then there is this binder:
q: Specify reported pKd for the binder shown: H1H14524P (antibody, human IgG1, V domains shown, human IgG1 (H1H)) VH: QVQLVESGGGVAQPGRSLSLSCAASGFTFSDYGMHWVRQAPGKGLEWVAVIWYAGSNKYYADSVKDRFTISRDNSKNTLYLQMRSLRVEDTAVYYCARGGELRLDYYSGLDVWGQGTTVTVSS VL: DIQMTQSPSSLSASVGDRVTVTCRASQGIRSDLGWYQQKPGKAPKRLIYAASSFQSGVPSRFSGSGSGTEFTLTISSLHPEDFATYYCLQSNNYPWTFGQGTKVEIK
a: 6.80

Each recorded value in this set is attributed to patent US20170355774A1.
